Experimental Target: recombinant human KLK5 (human) (UniProt Q9Y337)
Sequence (Q9Y337 67-293): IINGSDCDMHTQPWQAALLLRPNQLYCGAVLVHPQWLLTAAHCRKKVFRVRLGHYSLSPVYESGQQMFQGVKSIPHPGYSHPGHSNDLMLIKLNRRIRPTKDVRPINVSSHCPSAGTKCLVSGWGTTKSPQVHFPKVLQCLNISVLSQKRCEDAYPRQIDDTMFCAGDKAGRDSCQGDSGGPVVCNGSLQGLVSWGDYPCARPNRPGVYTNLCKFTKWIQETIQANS
Test Method Notes: Kiapp, KLK5 0.5-0.0625 nM, Z-VPR-pNA
Metric Name: Ki

* 9H3 (antibody, V domains shown) VH: QSVKESEGGLFKPTDTLTLTCTVSGFSLSGYGVSWVRQAPGKGLEYIGFIGSGGSAYYASWAKSRSTITRNTNLNTVTLKMTRLTAADTATYFCARDNVGGDMSLDIWGPGTLVTVSS VL: DIVMTQTPASVSEPVGGTVTIKCQASQNINNYLSWYQQKPGQPPKQLIYAASTLASGVPSRFKGSGSGTQFTLTISDLECADAATYYCHQDYTSNNVDNTFGGGTEVVVK | 0.07 nM
* 2-3F4 (antibody, V domains shown) VH: QSVEESRGGLIKPTDTLTLTCTASGFSLSNYGVSWVRQAPGNGLEYIGFIGYGGSTYYASWAKSRSTITRNTNLNTVTLQMTSLTAADTATYFCARLCGVDCADALDSWGPGTLVTVSS VL: AYYMTQTPASVEVAVGGTVTIKCQASEDIGSYCSWYQQKPGQPPKLLIYDASDLASGVPSRFKGSGSGTDFTLTISGVQCDDAATYYCQQDYTGNNVDNTFGGGSEVVVK | 1.14 nM
* 2B11 (antibody, V domains shown) VH: QSVKESEGGLFKPTDTLTLTCTVSGFSLINYGVSWVRQAPGKGLEWIGYIGSAGSTYYATWAKSRATITRNTNLNTVTLKMTSLTAADTATYFCARAAYSAGSADAEDIWGPGTLVTVSS VL: AYYMTQTPASVEAAVGGTVTIKCQASQSISNYVAWYQQKPGQPPKLLIYRASTLASGVSSRFSGSGSGTEFTLTISDLECADAATYYCHQGYSSSNVDNIFGGGTEVVVK | 6.35 nM
